Reference source for all entries: ChEMBL document CHEMBL3885881

- Species on record: Rattus norvegicus
- experimental.details: DrugMatrix - Regimen: Daily Repeat
- Format: toxicity, organism-based, Sprague-Dawley
- Design: regimen Daily Repeat, gender Male, age 6-8 weeks
- test.conditions: in vivo, po, 0 mg/kg, 72 h, tissue Blood, route oral GAVAGE, dose level Control, time 3 day, vehicle .5 % CMC
value.type: LYMPHOCYTE (%)
Answer with a number only, understood to be in %.

{"molecule": "CC(C(=O)O)c1ccc(-c2ccccc2)c(F)c1 (stereo not given)", "unit.annotation": "%", "LYMPHOCYTE": 89.33}
{"molecule": "CC(C)(Sc1cc(C(C)(C)C)c(O)c(C(C)(C)C)c1)Sc1cc(C(C)(C)C)c(O)c(C(C)(C)C)c1", "unit.annotation": "%", "LYMPHOCYTE": 89.33}
{"molecule": "CN1C(=O)CN=C(c2ccccc2)c2cc(Cl)ccc21", "unit.annotation": "%", "LYMPHOCYTE": 91.67}
{"molecule": "C[C@@H]1CC[C@H]2[C@@H](C)C(=O)O[C@@H]3O[C@@]4(C)CC[C@@H]1[C@]32OO4", "unit.annotation": "%", "LYMPHOCYTE": 90.17}

// LYMPHOCYTE value for CCCCC1C(=O)N(c2ccccc2)N(c2ccccc2)C1=O : 91.67

// LYMPHOCYTE value for COc1ccccc1OCC(O)COC(N)=O (stereo not given) : 90.17

###

// CARBON DIOXIDE lookup, one value per entry
- Species: Rattus norvegicus
- experimental.details: DrugMatrix - Regimen: Daily Repeat
- Type: toxicity, organism-based, Sprague-Dawley
- Set-up: regimen Daily Repeat, gender Male, age 6-8 weeks
- test.conditions: in vivo, po, 1500 mg/kg, 72 h, tissue Plasma, route oral GAVAGE, dose level High, time 3 day, vehicle .5 % CMC
Reply with the number, then its unit.

{"compound": "Nc1nc2c(c(=O)[nH]1)N(C=O)C(CNc1ccc(C(=O)N[C@@H](CCC(=O)O)C(=O)O)cc1)CN2 (some centres undefined)", "CARBON DIOXIDE": "32 mmol/L"}
{"compound": "CC(C)(Sc1cc(C(C)(C)C)c(O)c(C(C)(C)C)c1)Sc1cc(C(C)(C)C)c(O)c(C(C)(C)C)c1", "CARBON DIOXIDE": "27.33 mmol/L"}
{"compound": "C[C@@H](O)[C@H]1C(=O)N2C(C(=O)O)=C(S[C@@H]3CN[C@H](C(=O)N(C)C)C3)[C@H](C)[C@H]12", "CARBON DIOXIDE": "29.33 mmol/L"}

We now examine a further compound.
// CARBON DIOXIDE value for CCOC(=O)[C@H](CCc1ccccc1)N[C@@H](C)C(=O)N1CCC[C@H]1C(=O)O : 32.33 mmol/L

###

- Species on record: Rattus norvegicus
- experimental.details: DrugMatrix - Regimen: Daily Repeat
- Format: toxicity, organism-based, Sprague-Dawley
- Set-up: regimen Daily Repeat, gender Male, age 6-8 weeks
- test.conditions: in vivo, po, 0 mg/kg, 72 h, tissue Plasma, route oral GAVAGE, dose level Control, time 3 day, vehicle .5 % CMC
value.type: POTASSIUM (MEQ/L)
Answer with a number only, understood to be in MEQ/L.

Record excerpt, results attached:
{"structure.notation": "CN1C(=O)CN=C(c2ccccc2)c2cc(Cl)ccc21", "unit.annotation": "MEQ/L", "POTASSIUM": 7.13}
{"structure.notation": "Nc1cccc(Cl)c1", "unit.annotation": "MEQ/L", "POTASSIUM": 6.57}

We now examine a further compound.
// POTASSIUM value for CCCCC1C(=O)N(c2ccccc2)N(c2ccccc2)C1=O : 6.81

###

- Organism: Rattus norvegicus
- experimental.details: DrugMatrix - Regimen: Daily Repeat
- Assay type: toxicity, organism-based, Sprague-Dawley
- Parameters: regimen Daily Repeat, gender Male, age 6-8 weeks
- test.conditions: in vivo, po, 1500 mg/kg, 120 h, tissue Plasma, route oral GAVAGE, dose level High, time 5 day, vehicle .5 % CMC
// PHOSPHORUS lookup, one value per entry
Answer with a number only, understood to be in mg/dL.

Record excerpt, results attached:
{"compound": "CCOC(=O)[C@H](CCc1ccccc1)N[C@@H](C)C(=O)N1CCC[C@H]1C(=O)O", "unit.annotation": "mg/dL", "PHOSPHORUS": 10.67}
{"compound": "C[C@@H](O)[C@H]1C(=O)N2C(C(=O)O)=C(S[C@@H]3CN[C@H](C(=O)N(C)C)C3)[C@H](C)[C@H]12", "unit.annotation": "mg/dL", "PHOSPHORUS": 12.27}
{"compound": "O=c1cc(-c2ccccc2)oc2ccc3ccccc3c12", "unit.annotation": "mg/dL", "PHOSPHORUS": 13.3}
{"compound": "Nc1nc2c(c(=O)[nH]1)N(C=O)C(CNc1ccc(C(=O)N[C@@H](CCC(=O)O)C(=O)O)cc1)CN2 (stereo not given in full)", "unit.annotation": "mg/dL", "PHOSPHORUS": 12.9}

We now examine a further compound.
// PHOSPHORUS value for CC(C)(Sc1cc(C(C)(C)C)c(O)c(C(C)(C)C)c1)Sc1cc(C(C)(C)C)c(O)c(C(C)(C)C)c1 : 12.1

###

- Organism: Rattus norvegicus
- experimental.details: DrugMatrix - Regimen: Daily Repeat
- Type: toxicity, organism-based, Sprague-Dawley
- Design: regimen Daily Repeat, gender Male, age 6-8 weeks
- test.conditions: in vivo, po, 0 mg/kg, 72 h, tissue Blood, route oral GAVAGE, dose level Control, time 3 day, vehicle .5 % CMC
value.type: MONOCYTE (%)
Answer with a number only, understood to be in %.

Record excerpt, results attached:
{"compound": "Nc1cccc(Cl)c1", "unit.annotation": "%", "observed.result": 1.93}
{"compound": "Cc1cnc(C(=O)NCCc2ccc(S(=O)(=O)NC(=O)NC3CCCCC3)cc2)cn1 [GLIPIZIDE]", "unit.annotation": "%", "observed.result": 1.33}
{"compound": "COc1ccc(/C=C/C(=O)Nc2ccccc2C(=O)O)cc1OC", "unit.annotation": "%", "observed.result": 0}
{"compound": "O=c1cc(-c2ccccc2)oc2ccc3ccccc3c12", "unit.annotation": "%", "observed.result": 2.23}

We now examine a further compound.
// MONOCYTE value for CCCCC1C(=O)N(c2ccccc2)N(c2ccccc2)C1=O : 0.67

###

- Species on record: Rattus norvegicus
- experimental.details: DrugMatrix - Regimen: Daily Repeat
- Format: toxicity, organism-based, Sprague-Dawley
- Set-up: regimen Daily Repeat, gender Male, age 6-8 weeks
- test.conditions: in vivo, po, 0 mg/kg, 72 h, tissue Blood, route oral GAVAGE, dose level Control, time 3 day, vehicle 100 % SALINE
// ABSOLUTE LYMPHOCYTE lookup, one value per entry
Answer with a number only, understood to be in CELLS/uL.

Record excerpt, results attached:
{"molecule": "CC(=O)OCC(CCn1cnc2cnc(N)nc21)COC(C)=O", "unit.annotation": "CELLS/uL", "ABSOLUTE LYMPHOCYTE": 12359.33}
{"molecule": "Cc1cc(CC(=O)O)n(C)c1C(=O)c1ccc(Cl)cc1 [ZOMEPIRAC]", "unit.annotation": "CELLS/uL", "ABSOLUTE LYMPHOCYTE": 17283.5}
{"molecule": "CCCc1nn(C)c2c(=O)[nH]c(-c3cc(S(=O)(=O)N4CCN(C)CC4)ccc3OCC)nc12", "unit.annotation": "CELLS/uL", "ABSOLUTE LYMPHOCYTE": 12359.33}

We now examine a further molecule.
// ABSOLUTE LYMPHOCYTE value for Oc1ccccc1O : 17283.5

###

- Species on record: Rattus norvegicus
- experimental.details: DrugMatrix - Regimen: Daily Repeat
- Assay type: toxicity, organism-based, Sprague-Dawley
- Parameters: regimen Daily Repeat, gender Male, age 6-8 weeks
- test.conditions: in vivo, po, 100 mg/kg, 72 h, tissue Blood, route oral GAVAGE, dose level Low, time 3 day, vehicle .5 % CMC
// MEAN CORPUSCULAR HEMOGLOBIN lookup, one value per entry
Answer with a number only, understood to be in pg.

Record excerpt, results attached:
{"compound": "Nc1nc2c(c(=O)[nH]1)N(C=O)C(CNc1ccc(C(=O)N[C@@H](CCC(=O)O)C(=O)O)cc1)CN2 (some centres undefined) [LEUCOVORIN]", "unit.annotation": "pg", "MEAN CORPUSCULAR HEMOGLOBIN": 24.9}
{"compound": "C#C[C@]1(O)CC[C@H]2[C@@H]3CCC4=Cc5oncc5C[C@]4(C)[C@H]3CC[C@@]21C [DANAZOL]", "unit.annotation": "pg", "MEAN CORPUSCULAR HEMOGLOBIN": 24.3}

// MEAN CORPUSCULAR HEMOGLOBIN value for CC[C@]1(O)CC[C@H]2[C@@H]3CCC4=CCCC[C@@H]4[C@H]3CC[C@@]21C : 19.63

// MEAN CORPUSCULAR HEMOGLOBIN value for CC=Cc1ccc(O)c(OC)c1 [ISOEUGENOL] : 24.63
